Target: Casein kinase II subunit alpha (Homo sapiens, UniProt P68400)
Sequence (P68400 whole entry): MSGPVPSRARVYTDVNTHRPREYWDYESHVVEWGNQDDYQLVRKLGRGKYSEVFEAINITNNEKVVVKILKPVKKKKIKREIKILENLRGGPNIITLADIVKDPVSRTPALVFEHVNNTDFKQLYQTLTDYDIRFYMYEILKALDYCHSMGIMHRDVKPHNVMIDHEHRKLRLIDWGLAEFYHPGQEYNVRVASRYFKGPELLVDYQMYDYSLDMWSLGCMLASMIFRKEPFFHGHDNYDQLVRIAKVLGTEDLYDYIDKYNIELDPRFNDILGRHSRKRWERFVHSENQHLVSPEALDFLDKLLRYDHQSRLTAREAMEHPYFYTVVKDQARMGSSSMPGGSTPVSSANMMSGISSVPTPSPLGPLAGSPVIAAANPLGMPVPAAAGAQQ
Test: In vitro inhibitory concentration against human casein kinase 2 (CK2) by using [gamma-33P]-ATP] as radioligand
measuredMetric: pIC50
Conceptually, pIC50 converts a concentration in mol/L into minus its log10.

Input line: # query: pIC50 of entry NC1=NC(=O)/C(=C2\CCNC(=O)c3[nH]c(Br)cc32)N1
Output line: 5.15

###

Biological target: Casein kinase I isoform delta (Homo sapiens)
Sequence (P48730 whole entry, canonical isoform): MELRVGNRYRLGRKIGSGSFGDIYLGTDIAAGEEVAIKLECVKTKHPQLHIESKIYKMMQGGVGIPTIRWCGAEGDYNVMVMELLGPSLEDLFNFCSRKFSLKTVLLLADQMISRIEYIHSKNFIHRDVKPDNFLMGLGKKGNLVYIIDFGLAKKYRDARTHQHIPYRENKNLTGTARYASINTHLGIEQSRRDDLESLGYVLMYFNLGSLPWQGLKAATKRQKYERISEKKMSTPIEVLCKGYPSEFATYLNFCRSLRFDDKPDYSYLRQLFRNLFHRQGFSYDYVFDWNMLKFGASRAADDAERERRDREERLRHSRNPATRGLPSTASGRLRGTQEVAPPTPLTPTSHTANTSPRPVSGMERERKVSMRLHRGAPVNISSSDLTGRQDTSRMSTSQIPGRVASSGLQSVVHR
Assay: In vitro inhibitory concentration against human casein kinase 1 delta (CK1 delta) by using [gamma-33P]-ATP] as radioligand
pIC50: −log10 of the molar value.
measuredMetric: pIC50

(1) Nc1nc(C2=C3C(=Nc4ccccc43)C(=O)NCC2)c(O)[nH]1
(2) NC1=NC(=O)/C(=C2\CCNC(=O)c3[nH]c(Br)cc32)N1
Input line: // which entry reports the smaller pIC50, 1 or 2 ? Pick one; state its label.
Output line: 1
